Test system: A549 human lung cancer
method: MTT cell growth inhibition, A549
Assay type: cell-based
condition.details: Homo sapiens, A549; 24 hours; read-out: IC50 for cell growth inhibition, Lung A540
property: pIC50
A value of pIC50 is the negative decimal logarithm of a concentration given in moles per litre.

Reference set (3 entries):
| smiles.structure | tgt | pIC50 |
| --- | --- | --- |
| O=C(CCCC[C@@H]1CCSS1)Oc1ccccc1C(=O)OCCCCO[N+](=O)[O-] | A549 human lung cancer | 6.52 |
| NC(=S)c1ccc(OC(=O)c2ccccc2OC(=O)CCCO[N+](=O)[O-])cc1 | A549 human lung cancer | 5.19 |
| O=C(CCC(=O)Oc1ccccc1C(=O)Oc1ccc(-c2cc(=S)ss2)cc1)OCCCCO[N+](=O)[O-] | A549 human lung cancer | 6.92 |

Query compound follows.
# input For the compound O=C(CCCO[N+](=O)[O-])Oc1ccccc1C(=O)Oc1ccc(-c2cc(=S)ss2)cc1 , give its measured pIC50 value.
# output 7.30

###

Tested on: Jurkat T cell human leukemia
method: MTT cell growth inhibition, Jurkat
Format: cell-based
condition.details: Homo sapiens, Jurkat; 24 hours (Table 7)
property: IC50 (nM)
Respond with the bare value in nM.

// worked examples, IC50 included
| molecule | value.measured |
| --- | --- |
| CC1=C(CC(=O)O)c2cc(F)ccc2/C1=C\c1ccc([S+](C)[O-])cc1 (stereo not drawn) [sulindac, reference compound] | 699000 |
| CC1=C(CC(=O)Oc2ccc(OC(=O)CCCO[N+](=O)[O-])c(C(=O)Oc3ccc(-c4cc(=S)ss4)cc3)c2)c2cc(F)ccc2/C1=C/c1ccc([S+](C)[O-])cc1 (stereo not drawn) | 270 |

Could you now consider this next molecule?
# input State, in one line, measured IC50 of CC(C(=O)Oc1ccc(-c2cc(=S)ss2)cc1)c1ccc2cc(OC(=O)CCCO[N+](=O)[O-])ccc2c1 (stereo not drawn)
# output 100

###

Known gastric damage score, ulcer index (UI) of a selection of molecules
Test system: gastric mucosa
method: Gastric damage, ulcer index
Format: in vivo, rat
condition.details: rats, oral gavage, equimolar doses: ASA 180, NOSH-ASA 477, naproxen 80, NOSH-naproxen 188, sulindac 200, NOSH-sulindac 467 mg/kg; 6 h post-administration; vehicle UI=0

See these solved cases before continuing.
| molecule | gastric damage score, ulcer index (UI) |
| --- | --- |
| CC1=C(CC(=O)Oc2ccc(OC(=O)CCCO[N+](=O)[O-])c(C(=O)Oc3ccc(-c4cc(=S)ss4)cc3)c2)c2cc(F)ccc2/C1=C/c1ccc([S+](C)[O-])cc1 (stereo not shown) | 10 |
| O=C(CCCO[N+](=O)[O-])Oc1ccccc1C(=O)Oc1ccc(-c2cc(=S)ss2)cc1 | 2 |
| CC1=C(CC(=O)O)c2cc(F)ccc2/C1=C\c1ccc([S+](C)[O-])cc1 (stereo not shown) [sulindac, reference compound] | 130 |

Okay, next one:
# input Assign gastric damage score, ulcer index (UI) to the following record: CC(C(=O)Oc1ccc(-c2cc(=S)ss2)cc1)c1ccc2cc(OC(=O)CCCO[N+](=O)[O-])ccc2c1 (stereo not shown)
# output 2

###

pIC50 listing for selected compounds.
Tested on: HT-29 human colon cancer cells
method: MTT cell growth inhibition, HT-29
Format: cell-based
condition.details: Homo sapiens; HT-29 cells, 72 h; read-out: IC50, 72 h
Schema: pIC50 number; meaning minus log10 of the concentration expressed in molar units.

| compound | pIC50 |
| --- | --- |
| CC(=O)Oc1ccccc1C(=O)O [ASA, aspirin, reference compound] | 2.70 |

# input Provide measured pIC50 value, entry: O=C(CCCO[N+](=O)[O-])Oc1ccccc1C(=O)Oc1ccc(-c2cc(=S)ss2)cc1
# output 8.11
